These measurements were taken from ChEMBL document CHEMBL3414436.

Test: Binding affinity to egg yolk phosphotidylcholine liposomes assessed as induction of chloride ion efflux after 250 secs by fluorimetric analysis relative to lipid
Give measured EC50 for each item. Keep answers brief.
One number for each entry, in mol%.

[[record]]
smiles_repr = "C(#Cc1ccc(C[n+]2cn(Cc3cccc(Cn4c[n+](Cc5ccc(C#Cc6ccccc6)cc5)c5ccccc54)n3)c3ccccc32)cc1)c1ccccc1.O=S(=O)([N-]S(=O)(=O)C(F)(F)F)C(F)(F)F.O=S(=O)([N-]S(=O)(=O)C(F)(F)F)C(F)(F)F"
result_type = "EC50"
unit_spec = "mol%"
quantitative_readout = 5.6


For each of the molecules below, note its EC50.
1. C(#Cc1ccc(C[n+]2cn(-c3cccc(-n4c[n+](Cc5ccc(C#Cc6ccccc6)cc5)c5ccccc54)n3)c3ccccc32)cc1)c1ccccc1.[Br-].[Br-]
2. C(#Cc1ccc(Cn2c[n+](Cc3ccc(C#Cc4ccccc4)cc3)c3ccccc32)cc1)c1ccccc1.[Br-]

**A:**
[24, 14.8]
